# Ki values compiled below
# TARGET OF ASSAY: D(2) dopamine receptor (Rattus norvegicus)
# Sequence (P61169 whole entry): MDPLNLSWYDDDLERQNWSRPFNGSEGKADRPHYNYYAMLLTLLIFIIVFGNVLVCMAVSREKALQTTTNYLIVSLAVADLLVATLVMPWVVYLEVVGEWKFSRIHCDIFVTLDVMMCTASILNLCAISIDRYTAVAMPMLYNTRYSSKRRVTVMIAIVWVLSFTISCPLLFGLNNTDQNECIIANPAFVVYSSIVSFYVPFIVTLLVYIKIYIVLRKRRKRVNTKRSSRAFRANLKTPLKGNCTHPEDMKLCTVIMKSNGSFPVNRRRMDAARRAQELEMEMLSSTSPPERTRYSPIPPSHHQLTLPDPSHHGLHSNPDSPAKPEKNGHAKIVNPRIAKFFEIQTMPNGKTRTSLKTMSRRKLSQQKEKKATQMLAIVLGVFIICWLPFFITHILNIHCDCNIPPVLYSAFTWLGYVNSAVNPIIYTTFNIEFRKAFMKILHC
# PROCEDURE TEXT: The compound has been evaluated for its binding affinity towards Dopamine receptor D2 by displacing the radioligand [3H]YM-09151-2 (0.5 nM) in rat striatal synaptosomes.
Hi! Could you send only the number? It should be in µM, unit omitted.

Oc1cc2c(cc1O)C(Cc1ccccc1)NCC2 (stereo not drawn) ... 0.64

Input: Endpoint output: Ki of Oc1ccc(CC2NCCc3ccccc32)cc1O (stereo not drawn) . Value?
Output: 8.79

Input: Endpoint output: Ki of c1ccc(CC2NCCc3ccccc32)cc1 (stereo not drawn) . Value?
Output: 3.57

Source of measurements: ChEMBL document CHEMBL1133134
